- STUDY SYSTEM: rat α1β2γ2 GABAA Receptor (Rattus norvegicus, UniProt P18508+P62813+P63138, INS375LLRMFSFK)
- Construct: from linearized pBluescript vectors containing receptor coding regions; expressed in transfected cells; host or cells: Xenopus laevis oocytes injected with in vitro transcribed capped mRNA
- Sequence (P62813 28-455, stated change not applied): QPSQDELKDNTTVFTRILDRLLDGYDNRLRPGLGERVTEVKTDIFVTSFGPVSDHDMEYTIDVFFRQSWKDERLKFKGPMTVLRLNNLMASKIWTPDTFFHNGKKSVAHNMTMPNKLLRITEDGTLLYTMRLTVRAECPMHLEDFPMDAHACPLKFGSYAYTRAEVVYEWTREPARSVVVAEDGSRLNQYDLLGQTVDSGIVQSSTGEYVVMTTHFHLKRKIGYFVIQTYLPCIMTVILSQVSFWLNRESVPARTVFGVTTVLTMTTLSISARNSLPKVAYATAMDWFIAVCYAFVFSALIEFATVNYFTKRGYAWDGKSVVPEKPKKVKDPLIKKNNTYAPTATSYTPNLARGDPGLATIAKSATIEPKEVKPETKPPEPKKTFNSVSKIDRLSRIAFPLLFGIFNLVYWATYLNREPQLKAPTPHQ
- Sequence (P63138 26-474, stated change not applied): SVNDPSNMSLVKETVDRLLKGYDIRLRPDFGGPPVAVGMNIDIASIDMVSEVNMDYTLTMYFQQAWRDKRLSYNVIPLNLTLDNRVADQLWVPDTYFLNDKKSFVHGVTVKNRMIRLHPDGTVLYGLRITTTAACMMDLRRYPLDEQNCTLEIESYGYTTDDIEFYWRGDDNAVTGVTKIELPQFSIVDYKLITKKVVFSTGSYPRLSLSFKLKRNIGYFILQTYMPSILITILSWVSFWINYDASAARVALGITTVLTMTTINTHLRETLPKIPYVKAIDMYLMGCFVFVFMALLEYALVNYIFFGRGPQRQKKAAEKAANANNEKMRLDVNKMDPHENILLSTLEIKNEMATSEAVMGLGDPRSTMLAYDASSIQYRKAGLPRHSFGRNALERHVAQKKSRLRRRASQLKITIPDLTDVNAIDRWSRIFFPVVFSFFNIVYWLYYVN
- Sequence (P18508 with tags, fused parts or gaps INS375LLRMFSFK): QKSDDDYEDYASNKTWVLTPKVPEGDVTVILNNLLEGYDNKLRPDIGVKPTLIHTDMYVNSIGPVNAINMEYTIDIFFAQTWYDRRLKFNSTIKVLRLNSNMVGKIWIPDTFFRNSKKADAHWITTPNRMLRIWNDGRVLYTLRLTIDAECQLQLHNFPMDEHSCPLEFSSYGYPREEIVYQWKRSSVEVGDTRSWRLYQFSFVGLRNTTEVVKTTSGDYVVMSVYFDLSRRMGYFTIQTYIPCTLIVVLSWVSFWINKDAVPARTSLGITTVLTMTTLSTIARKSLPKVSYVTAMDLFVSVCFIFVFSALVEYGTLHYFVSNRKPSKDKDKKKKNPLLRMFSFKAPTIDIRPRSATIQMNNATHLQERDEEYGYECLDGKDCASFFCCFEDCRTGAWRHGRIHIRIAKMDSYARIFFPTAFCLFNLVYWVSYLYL
- TEST DETAILS: Xenopus oocyte two-electrode voltage-clamp electrophysiology
- Type: cell-based
- EXPERIMENTAL PARAMETERS: direct current gated by 10 μM compound in the absence of GABA
For each entry below, report its Gating (10 μM), ratio of compound only current/2 μM GABA current value.
// keep it numeric: no unit symbol after the value

// Gating (10 μM), ratio of compound only current/2 μM GABA current lookup, molecule = C[C@]12CC[C@@H](O)C[C@@H]1CCC1C3CC[C@@H]4C[C@H](C#N)CC[C@]34CCC12 (stereo partly shown) , result: −0.01

// Gating (10 μM), ratio of compound only current/2 μM GABA current lookup, molecule = CC12CCC(O)CC1CCC1C2CCC23C=C(Br)C(=O)C2CCC13 (stereo not shown) , result: 0.02

// Gating (10 μM), ratio of compound only current/2 μM GABA current lookup, molecule = C[C@]12CC[C@@H](O)C[C@@H]1CCC1C3CC[C@@H]4[C@@H]5O[C@@H]5CC[C@]34CCC12 (stereo partly shown) , result: −0.01

// Gating (10 μM), ratio of compound only current/2 μM GABA current lookup, molecule = C[C@]12CC[C@@H](O)C[C@@H]1CCC1C3CC[C@@H]4[C@@H](C#N)CCC[C@]34CCC12 (stereo partly shown) , result: −0.01

The reported measurements were obtained from patent US7781421B2.
